target: Albumin (Homo sapiens); assay: Binding affinity to HSA assessed as effective quenching constant at 313 K by spectrofluorimetric based Stern-Volmer method; type: ADME; details: isolated protein
Sequence (P02768 whole entry): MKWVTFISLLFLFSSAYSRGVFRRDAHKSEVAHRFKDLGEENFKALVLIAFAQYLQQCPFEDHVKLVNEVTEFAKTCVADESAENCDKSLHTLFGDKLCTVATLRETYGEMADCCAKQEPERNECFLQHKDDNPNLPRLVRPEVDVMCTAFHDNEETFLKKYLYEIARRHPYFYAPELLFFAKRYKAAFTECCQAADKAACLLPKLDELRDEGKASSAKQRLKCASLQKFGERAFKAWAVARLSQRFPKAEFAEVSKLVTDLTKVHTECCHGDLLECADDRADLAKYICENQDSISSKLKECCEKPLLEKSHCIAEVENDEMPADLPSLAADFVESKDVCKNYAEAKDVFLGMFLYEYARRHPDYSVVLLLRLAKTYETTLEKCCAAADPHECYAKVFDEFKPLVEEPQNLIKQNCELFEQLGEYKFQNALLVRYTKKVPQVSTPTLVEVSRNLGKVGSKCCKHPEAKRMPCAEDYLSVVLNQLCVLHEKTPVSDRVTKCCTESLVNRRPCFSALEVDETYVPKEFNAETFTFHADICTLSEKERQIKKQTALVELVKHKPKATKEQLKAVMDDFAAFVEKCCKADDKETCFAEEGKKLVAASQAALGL
value type: Kq (M⁻¹)
Just the number in M⁻¹, nothing appended.

### Prompt Report Kq for CC(=O)/C(=C/c1cn(CC(=O)N2CCCCC2)c2ccccc12)n1cc([N+](=O)[O-])nc1C tested on Albumin (Homo sapiens).
### Response 56900

###

test system: Enterococcus faecalis; experiment: Antibacterial activity against Enterococcus faecalis incubated for 24 hrs by two fold serial dilution method; assay type: functional
Below, each of the molecules is paired with its reported MIC value.
Reply with a number, then the unit it belongs to.

Worked examples follow.
{"molecule": "CCn1cc(C(=O)O)c(=O)c2cc(F)c(N3CCNCC3)cc21 [NORFLOXACIN]", "target": "Enterococcus faecalis", "MIC": "4 µg/mL"}
{"molecule": "CCN(CC)C(=O)Cn1cc(/C=C(/C(C)=O)n2cc([N+](=O)[O-])nc2C)c2ccccc21", "target": "Enterococcus faecalis", "MIC": "64 µg/mL"}
{"molecule": "NC1CCN(c2c(F)cc3c(=O)c(C(=O)O)cn(C4CC4)c3c2Cl)C1 (configuration not stated) [CLINAFLOXACIN]", "target": "Enterococcus faecalis", "MIC": "2 µg/mL"}

### Prompt // lookup MIC for CC(=O)/C(=C/c1cn(CC(=O)N2CCCC2)c2ccccc12)n1cc([N+](=O)[O-])nc1C
### Response 64 µg/mL

### Prompt // lookup MIC for CC(=O)/C(=C/c1cn(CC(=O)N2CCN(Cc3ccc(F)cc3)CC2)c2cc(Cl)ccc12)n1cc([N+](=O)[O-])nc1C
### Response 2 µg/mL

### Prompt // lookup MIC for CC(=O)/C(=C/c1cn(CC(=O)N2CCCCC2)c2cc(C)ccc12)n1cc([N+](=O)[O-])nc1C
### Response 128 µg/mL

### Prompt // lookup MIC for CC(=O)/C(=C/c1cn(CC(=O)N2CCOCC2)c2ccccc12)n1cc([N+](=O)[O-])nc1C
### Response 32 µg/mL

### Prompt // lookup MIC for CC(=O)/C(=C/c1cn(CC(=O)N2CCCCC2)c2ccccc12)n1cc([N+](=O)[O-])nc1C
### Response 32 µg/mL

### Prompt // lookup MIC for CC(=O)/C(=C/c1cn(CC(=O)N(C2CCCCC2)C2CCCCC2)c2ccccc12)n1cc([N+](=O)[O-])nc1C
### Response 128 µg/mL

### Prompt // lookup MIC for CC(=O)/C(=C/c1cn(CC(=O)N2CCN(Cc3ccc(F)cc3)CC2)c2ccccc12)n1cc([N+](=O)[O-])nc1C
### Response 2 µg/mL

### Prompt // lookup MIC for C#CCn1cc(/C=C(/C(C)=O)n2cc([N+](=O)[O-])nc2C)c2ccccc21
### Response 32 µg/mL

### Prompt // lookup MIC for CCN(CC)C(=O)Cn1cc(/C=C(/C(C)=O)n2cc([N+](=O)[O-])nc2C)c2ccc(C)cc21
### Response 64 µg/mL
